assay: Partition coefficient (log D), n-Octanol/PBS; type: physicochemical; conditions: read-out: logD
Parameter: logD
Lab note: jot the number down without any unit.

Enquiry: Give a short answer stating reported logD for O=C(O)CN1CCN(CC(=O)O)CCN([C@H](CCC(=O)NCCCC(=O)NC(COCc2cn(CCOCCOCCO[C@@H]3O[C@H](CO)[C@H](O)[C@H](O)[C@H]3O)nn2)(COCc2cn(CCOCCOCCO[C@@H]3O[C@H](CO)[C@H](O)[C@H](O)[C@H]3O)nn2)COCc2cn(CCOCCOCCO[C@@H]3O[C@H](CO)[C@H](O)[C@H](O)[C@H]3O)nn2)C(=O)O)CC1 [[^68Ga]Ga-NODAGA-TriGalactan, metal not drawn] .
Return: -4.33

----------
test: Biodistribution studies incl. blocking experiments; format: in vivo; conditions: healthy BALB/c mice, 30 min p.i.
# Biodistribution Spleen listing for each entry below
// return numeric value only (unit: % ID/g, not printed)

Consider the reported Biodistribution Spleen for these compounds:
- O=C(CCP(=O)([O-])CN1CCN(CP(=O)([O-])CCC(=O)NCc2cn([C@@H]3O[C@H](CO)[C@H](O)[C@H](O)[C@H]3O)nn2)CCN(CP(=O)([O-])CCC(=O)NCc2cn([C@@H]3O[C@H](CO)[C@H](O)[C@H](O)[C@H]3O)nn2)CC1)NCc1cn([C@@H]2O[C@H](CO)[C@H](O)[C@H](O)[C@H]2O)nn1.[68Ga+3] [[^68Ga]Ga-Galacto-TRAP]: 2.17
- CC(=O)N[C@H]1[C@H](OCCOCCOCCn2cc(CNC(=O)CCP(=O)([O-])CN3CCN(CP(=O)([O-])CCC(=O)NCc4cn(CCOCCOCCO[C@@H]5O[C@H](CO)[C@H](O)[C@H](O)[C@H]5NC(C)=O)nn4)CCN(CP(=O)([O-])CCC(=O)NCc4cn(CCOCCOCCO[C@@H]5O[C@H](CO)[C@H](O)[C@H](O)[C@H]5NC(C)=O)nn4)CC3)nn2)O[C@H](CO)[C@H](O)[C@@H]1O.[68Ga+3] [[^68Ga]Ga-TRAP-GalNAc]: 0.20
- O=C(CCP(=O)([O-])CN1CCN(CP(=O)([O-])CCC(=O)NCc2cn(CCOCCOCCO[C@@H]3O[C@H](CO)[C@H](O)[C@H](O)[C@H]3O)nn2)CCN(CP(=O)([O-])CCC(=O)NCc2cn(CCOCCOCCO[C@@H]3O[C@H](CO)[C@H](O)[C@H](O)[C@H]3O)nn2)CC1)NCc1cn(CCOCCOCCO[C@@H]2O[C@H](CO)[C@H](O)[C@H](O)[C@H]2O)nn1.[68Ga+3] [[^68Ga]Ga-TRAP-Galactan]: 0.42

Continue with the compound presented below.
Enquiry: Give a short answer stating reported Biodistribution Spleen for O=C(CCP(=O)([O-])CN1CCN(CP(=O)([O-])CCC(=O)NCc2cn(CCOCCOCCO[C@@H]3O[C@H](CO)[C@@H](O)[C@H](O)[C@H]3O)nn2)CCN(CP(=O)([O-])CCC(=O)NCc2cn(CCOCCOCCO[C@@H]3O[C@H](CO)[C@@H](O)[C@H](O)[C@H]3O)nn2)CC1)NCc1cn(CCOCCOCCO[C@@H]2O[C@H](CO)[C@@H](O)[C@H](O)[C@H]2O)nn1.[68Ga+3] [[^68Ga]Ga-TRAP-Gluco, reference compound] .
Return: 0.41
